- System: HCT-116
- measurement description: Cytotoxicity against human HCT116 cells after 72 hrs by MTT assay
- Format: functional, cell-based
- applied conditions: HCT-116, 72 h
Note to self: IC50 under 2 µM means Yes, ties and anything higher get No.

Observe how each entry below is paired with its result.
Consider `COc1cccc2c1-c1[nH]nc(Nc3ccccc3)c1C2` . Does its IC50 lie strictly below 2 µM?
Yes

Consider `COc1cccc2c1Cc1c-2n[nH]c1Nc1ccccc1` . Does its IC50 lie strictly below 2 µM?
No

Consider `c1ccc2c(c1)Cc1c-2n[nH]c1Nc1ccc2c(c1)OCO2` . Does its IC50 lie strictly below 2 µM?
No

Next:
Consider `OCc1ccc(-c2nn(Cc3ccccc3)c3ccccc23)o1` . Does its IC50 lie strictly below 2 µM?
No

----------
- Tested on: PC-3
- measurement description: Cytotoxicity against human PC3 cells after 72 hrs by MTT assay
- Assay type: functional, cell-based
- applied conditions: PC-3, 72 h
pIC50: −log10 of the molar value.
Label rule, in plain words: pIC50 of 5 and up is t, under 5 is f.

Observe how each entry below is paired with its result.
Reported pIC50 reaches at least 5 for `COc1ccc2c(c1)-c1n[nH]c(Nc3ccccc3)c1C2` ?
f

Reported pIC50 reaches at least 5 for `c1ccc2c(c1)Cc1c-2n[nH]c1Nc1ccc2c(c1)OCO2` ?
f

Reported pIC50 reaches at least 5 for `COc1cccc2c1Cc1c-2n[nH]c1Nc1ccccc1` ?
f

Reported pIC50 reaches at least 5 for `COC(=O)c1ccc(O)c(NC(=O)COc2ccc(C34CC5CC(CC(C5)C3)C4)cc2)c1` ?
f

Reported pIC50 reaches at least 5 for `COc1cccc2c1-c1[nH]nc(Nc3ccccc3)c1C2` ?
t

Could you now consider this next compound?
Reported pIC50 reaches at least 5 for `c1ccc2c(c1)Cc1c(Nc3ccc4c(c3)OCCO4)n[nH]c1-2` ?
f

----------
- system: Hypoxia-inducible factor 1-alpha (Homo sapiens)
- Sequence (Q16665 whole entry): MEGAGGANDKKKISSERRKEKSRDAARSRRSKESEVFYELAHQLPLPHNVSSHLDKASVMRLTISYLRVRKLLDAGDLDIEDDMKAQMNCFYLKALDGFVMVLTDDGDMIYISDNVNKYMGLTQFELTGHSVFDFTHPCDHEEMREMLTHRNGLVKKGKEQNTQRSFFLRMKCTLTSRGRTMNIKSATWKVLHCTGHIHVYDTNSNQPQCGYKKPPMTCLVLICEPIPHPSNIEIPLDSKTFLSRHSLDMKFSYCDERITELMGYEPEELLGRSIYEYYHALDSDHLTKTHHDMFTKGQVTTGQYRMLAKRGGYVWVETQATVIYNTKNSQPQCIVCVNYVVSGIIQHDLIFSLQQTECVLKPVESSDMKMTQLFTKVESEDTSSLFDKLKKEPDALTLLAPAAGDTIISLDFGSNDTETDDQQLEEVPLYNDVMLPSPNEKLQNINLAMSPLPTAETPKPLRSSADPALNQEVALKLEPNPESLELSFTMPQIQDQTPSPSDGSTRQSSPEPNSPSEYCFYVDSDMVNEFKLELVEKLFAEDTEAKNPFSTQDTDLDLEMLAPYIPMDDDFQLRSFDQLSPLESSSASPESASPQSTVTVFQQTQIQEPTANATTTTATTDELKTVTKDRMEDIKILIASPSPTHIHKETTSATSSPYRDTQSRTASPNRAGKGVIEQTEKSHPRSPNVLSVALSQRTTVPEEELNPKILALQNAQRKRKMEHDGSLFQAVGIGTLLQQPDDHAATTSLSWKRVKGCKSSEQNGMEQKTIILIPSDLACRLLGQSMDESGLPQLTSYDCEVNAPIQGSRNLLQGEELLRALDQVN
- measurement description: Inhibition of hypoxia-induced HIF1alpha transcriptional activity in human HeLa cells expressing HRE-Luc after 12 hrs by luciferase reporter gene assay
- Format: cell-based
test readout: IC50

Some entries whose results are on file:
Entry `COc1cc2c(cc1OC)-c1n[nH]c(Nc3ccccc3)c1C2` has what IC50?
> 30 µM

Entry `COc1ccc2c(c1)-c1n[nH]c(Nc3ccccc3)c1C2` has what IC50?
> 30 µM

Next:
Entry `COc1cccc2c1Cc1c-2n[nH]c1Nc1ccccc1` has what IC50?
> 30 µM

Entry `c1ccc2c(c1)Cc1c-2n[nH]c1Nc1ccc2c(c1)OCCO2` has what IC50?
0.014 µM

----------
- Tested on: HCT-116
- measurement description: Cytotoxicity against human HCT116 cells after 72 hrs by MTT assay
- Format: functional, cell-based
- applied conditions: HCT-116, 72 h
IC50: recorded values
Give just the numeric value; µM need not be written.

Entry `COc1cccc2c1Cc1c(Nc3ccc4c(c3)OCCO4)n[nH]c1-2` has what IC50?
5.9

Entry `c1ccc(Nc2n[nH]c3c2Cc2ccccc2-3)cc1` has what IC50?
17.5

Next:
Entry `c1ccc2c(c1)Cc1c(Nc3ccc4c(c3)OCCO4)n[nH]c1-2` has what IC50?
2.1

----------
- System: PC-3
- measurement description: Cytotoxicity against human PC3 cells after 72 hrs by MTT assay
- Type: functional, cell-based
- applied conditions: PC-3, 72 h
IC50: recorded values
Give just the numeric value; µM need not be written.

Some entries whose results are on file:
Entry `COc1cc2c(cc1OC)-c1n[nH]c(Nc3ccccc3)c1C2` has what IC50?
0.72

Entry `c1ccc(Nc2n[nH]c3c2Cc2cc4c(cc2-3)OCO4)cc1` has what IC50?
22.3

Entry `COc1ccc(Nc2n[nH]c3c2Cc2ccccc2-3)cc1` has what IC50?
28.8

Let us examine a further case.
Entry `COc1cccc2c1Cc1c(Nc3ccc4c(c3)OCCO4)n[nH]c1-2` has what IC50?
6.9

----------
- Test system: PC-3
- measurement description: Cytotoxicity against human PC3 cells after 72 hrs by MTT assay
- Format: functional, cell-based
- applied conditions: PC-3, 72 h
IC50: recorded values

Some entries whose results are on file:
Write down the reported IC50 of `OCc1ccc(-c2nn(Cc3ccccc3)c3ccccc23)o1` , test system: PC-3.
> 30 µM

Write down the reported IC50 of `COc1ccc(Nc2n[nH]c3c2Cc2ccccc2-3)cc1OC` , test system: PC-3.
> 30 µM

Write down the reported IC50 of `COc1ccc2c(c1)Cc1c-2n[nH]c1Nc1ccccc1` , test system: PC-3.
< 0.1 µM

Write down the reported IC50 of `c1ccc(Nc2n[nH]c3c2Cc2ccccc2-3)cc1` , test system: PC-3.
> 30 µM

Next:
Write down the reported IC50 of `COc1cccc(Nc2n[nH]c3c2Cc2ccccc2-3)c1` , test system: PC-3.
> 30 µM
